system: SK-MEL-2 melanoma; assay: NCI tumour cell line growth inhibition, 48 h
observationType: log10(TGI) (log10 of the value in µM)

[
  {
    "compound": "Cn1cc(-c2ccc(CNc3cc(-c4cnc5cc(OCCCN6CCCC6)ccn45)ncn3)cc2)cn1",
    "targetOfAssay": "SK-MEL-2 melanoma",
    "log10(TGI)": 1.48
  },
  {
    "compound": "CCOC(=O)COc1ccc(/C=C/C(=O)c2ccc(OC)cc2)cc1",
    "targetOfAssay": "SK-MEL-2 melanoma",
    "log10(TGI)": 1.93
  },
  {
    "compound": "N#CC1C(N)=NNC12Nc1ccccc1N2 (configuration not stated)",
    "targetOfAssay": "SK-MEL-2 melanoma",
    "log10(TGI)": 1.89
  },
  {
    "compound": "CC(CCc1ccc2c(c1)c(=N)c1ccc(N)cc1n2O)CC(C)(C)C (configuration not stated)",
    "targetOfAssay": "SK-MEL-2 melanoma",
    "log10(TGI)": 0.52
  },
  {
    "compound": "Cc1c2cnccc2nc2[nH]c3ccncc3c12",
    "targetOfAssay": "SK-MEL-2 melanoma",
    "log10(TGI)": 1.44
  },
  {
    "compound": "Oc1cc(Cl)ccc1Oc1ccc(Cl)cc1Cl",
    "targetOfAssay": "SK-MEL-2 melanoma",
    "log10(TGI)": 0.70
  },
  {
    "compound": "CC(C)OC(=O)c1ccc2[nH]c(O)c(C(=Nc3ccc(N(C)C(=O)CN4CCN(C)CC4)cc3)c3ccccc3)c2c1",
    "targetOfAssay": "SK-MEL-2 melanoma",
    "log10(TGI)": 0.43
  },
  {
    "compound": "COC(=O)[C@@]12OC[C@]34C([C@@H](O)C1O)[C@@]1(C)CC(=O)C(O)=C(C)C1C[C@H]3OC(=O)[C@H](OC(=O)CC(C)C(F)(F)F)[C@H]42 (some centres not stated)",
    "targetOfAssay": "SK-MEL-2 melanoma",
    "log10(TGI)": -0.44
  },
  {
    "compound": "CSc1c(C(=O)Nc2ccc(Cl)cc2)c(N)[nH]c(=O)c1C#N",
    "targetOfAssay": "SK-MEL-2 melanoma",
    "log10(TGI)": 1.51
  },
  {
    "compound": "COC(=O)[C@@H]1CCCN1C(=O)[C@@H]1CCCN1C(=O)[C@@H](Cc1c[nH]c2ccccc12)NC(=S)Nc1cc(C(F)(F)F)cc(C(F)(F)F)c1",
    "targetOfAssay": "SK-MEL-2 melanoma",
    "log10(TGI)": 0.71
  },
  {
    "compound": "Cc1c2ccncc2c(C)c2c1[nH]c1ccc(OC(C)(C)C)cc12",
    "targetOfAssay": "SK-MEL-2 melanoma",
    "log10(TGI)": 0.59
  },
  {
    "compound": "CN(C)c1ccc(/C=C/c2cc[n+](C)c3ccccc23)cc1",
    "targetOfAssay": "SK-MEL-2 melanoma",
    "log10(TGI)": 0.80
  },
  {
    "compound": "Cn1c(=O)nc2n(-c3ccc(Cl)cc3Cl)c3ccccc3nc-2c1=O",
    "targetOfAssay": "SK-MEL-2 melanoma",
    "log10(TGI)": 1.24
  },
  {
    "compound": "CC(CCCOC(c1ccccc1)(c1ccccc1)c1ccccc1)OC(=O)Nc1cc([N+](=O)[O-])cc([N+](=O)[O-])c1 (configuration not stated)",
    "targetOfAssay": "SK-MEL-2 melanoma",
    "log10(TGI)": 1.90
  },
  {
    "compound": "Cc1c(C)c2ccc(OC/C=C3\\CCC(=O)O3)cc2oc1=O",
    "targetOfAssay": "SK-MEL-2 melanoma",
    "log10(TGI)": 1.49
  },
  {
    "compound": "CCOC(=O)/C(C#N)=C1\\N[C@H](C(=O)OCC)CO1",
    "targetOfAssay": "SK-MEL-2 melanoma",
    "log10(TGI)": 1.80
  },
  {
    "compound": "CN(C)CCNC(=O)c1ccc(Cl)c2c(Nc3ccc(S(N)(=O)=O)cc3)c3ccccc3nc12",
    "targetOfAssay": "SK-MEL-2 melanoma",
    "log10(TGI)": 0.60
  },
  {
    "compound": "COc1ccc2c(c1)C(=O)c1c-2n(CCCN2CCOCC2)c(=O)c2ccccc12",
    "targetOfAssay": "SK-MEL-2 melanoma",
    "log10(TGI)": 1.80
  }
]
